Reported values of ED (-1 C) for individual entries
system: male mice (CD1 Charles Rivers); assay: Hypothermic activity (rectal body temperature); format: in vivo; settings: Mus musculus; oral route; dose necessary to reduce the body temperature by 1° C.; read-out: Effective dose (-1° C.) O.R.

{"molecule": "Cc1cnc(C2=CCCNC2)o1.Cl [Example 8]", "ED (-1 C) [mg/kg]": 24}
{"molecule": "C1=C(c2ncco2)CNCC1.Cl [Example 6]", "ED (-1 C) [mg/kg]": 3.2}
{"molecule": "Cc1coc(C2=CCCNC2)n1.Cl [Example 2]", "ED (-1 C) [mg/kg]": 2.6}
{"molecule": "ON1CCC=C(c2ncco2)C1 [Example 10]", "ED (-1 C) [mg/kg]": 4.2}
